src = patent US20120003661A1

tested on: bacteria, fungi, and/or yeasts; format: binding; conditions: microorganism(s) the targeting peptide binds, as listed in Table 2
measure_name: Target(s)

Here is how some substances turned out for Target(s).
• 1T-9 (WAWAESPRCVSTRSNIHALAFRVEVAALT) = M. xanthus
• 1T-32 (VSFLAGWLCLGLAAWRLGNA) = S. mutans
• 1T-53 (SDILAEMFEKGELQTLVKDAAAKANA) = P. aeruginosa
• 1T-248 (IGGALNSCG) = S. sanguinis
• 1T-215 (VCFKDISVFLSPFRGQEVLFCGKAKHSLIYVIGT) = S. sanguinis
• 1T-77 (EMRISRIILDFLFLRKK) = S. pneumoniae
• 1T-216 (FFLNVIAIRIPHF) = S. sanguinis
• 1T-72 (EPTDGVACKER) = P. aeruginosa
• 1T-7 (SQRIIEPVKSPQPYPGFSVS) = M. xanthus
• 1T-84 (FRKKRYGLSILLWLNAFTNLVNSIHAFYMTLF) = S. pneumoniae

// Target(s) value for 1T-237 (EDPVPNHFTLRRNKKEKPSKS) : S. sanguinis

So for 1T-83 (QKPRKNETFIGYIQRYDIDGNGYQSLPCPQN) , the logged Target(s) turned out to be S. pneumoniae

# Target(s) of 1T-57 (RLEYRRLETQVEENPESGRRPMRG) = P. aeruginosa

The recorded Target(s) for entry 1T-117 (GPGVVGPAPFSRLPAHALNL) equals S. mutans

Note to self: Target(s) recorded for 1T-8 (FSVAACGEQRAVTFVLLIEDLI) was M. xanthus

Reported Target(s) for 1T-75 (GVARGLQLGIKTRTQWGAATGAA) was S. pneumoniae

* * *

system: bacteria, fungi, and/or yeasts; type: binding; details: microorganism(s) the targeting peptide binds, as listed in Table 2
measure_name: Target(s)

• 1T-112 (SDNDGKLILGTSQ) = S. gordonii
• 1T-17 (NNAIVYIS) = S. mutans
• 1T-39 (FGFCVWMYQLLAGPPGPPA) = S. mutans, P. aeruginosa
• 1T-61 (HATLLPAVREAISRQLLPALVPRG) = P. aeruginosa
• 1T-69 (ILSQEADRKKLF) = S. mutans, P. aeruginosa
• 1T-58 (CDDLHALERAGKLDALLSA) = P. aeruginosa
• 1T-6 (KFINGVLSQFVLERK) = S. mutans
• 1T-74 (DIDWGRKISCAAGVAYGAIDGCATTV) = S. pneumoniae

The value of Target(s) recorded for 1T-170 (AYGKVFSMDIMLSENDKLIVLRISHHSAWH) when tested on bacteria, fungi, and/or yeasts reads P. gingivalis

Query 1T-78 (FFKTIFVLILGALGVAAGLYIEKNYIDK) on bacteria, fungi, and/or yeasts; Target(s) returned: S. pneumoniae

So the reported Target(s) for 1T-193 (LMIFDKHANLKYKYGNRSFGVEAIM) , on bacteria, fungi, and/or yeasts, turned out to be S. sanguinis

For the substance 1T-24 (EEAEEKLAEVSQAVKRLVR) , the measured Target(s) on bacteria, fungi, and/or yeasts was P. aeruginosa

Tested on bacteria, fungi, and/or yeasts: 1T-28 (VSRDEAMEFIDREWTTLQPAGKSHA) . Observed Target(s): P. aeruginosa

* * *

test system: S. epidermidis; test: MIC of antimicrobial peptides (Table 4); type: cell-based, Staphylococcus epidermidis
Ends that are not written are not given here.
measure_name: Organism MIC

• KFQGEFTNIGQSYIVSASHMSTSLNTGK [PF-583] = S. epidermidis, 50 μM
• LSLATFAKIFMTRSNWSLKRFNRL [PF-278] = S. epidermidis, 50 μM
• YIQFHLNQQPRPKVKKIKIFL-NH2 [PF-531] = S. epidermidis, 50 μM
• FESKILNASKELDKEKKVNTALSFNSHQDFAKAYQNGKI [PF-606] = S. epidermidis, 50 μM

In the following, a different substance is considered.
Note to self: Organism MIC recorded for MIRIRSPTKKKLNRNSISDWKSNTSGRFFY [PF-283] was S. epidermidis, 50 μM

* * *

system: B. subtilis; test: MIC of antimicrobial peptides (Table 4); assay type: cell-based, Bacillus subtilis; details: B. subtilis
Ends that are not written are not given here.
measure_name: Organism MIC

Example entries begin here.
• RESKLIAMADMIRRRI-NH2 [PF-545] = B. subtilis, 25 μM
• WSRVPGHSDTGWKVWHRW-NH2 [PF-547] = B. subtilis, 25 μM
• MIRIRSPTKKKLNRNSISDWKSNTSGRFFY [PF-283] = B. subtilis, 50 μM
• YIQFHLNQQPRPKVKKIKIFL-NH2 [PF-531] = B. subtilis, 25 μM

get_value(item= VYSFLYVLVIVRKLLSMKKRIERL [PF-499] , readout=Organism MIC) returns B. subtilis, 50 μM

* * *

test system: bacteria, fungi, and/or yeasts; assay type: binding; conditions: microorganism(s) the targeting peptide binds, as listed in Table 2
measure_name: Target(s)

Here are 5 substances together with their reported answers.
• 1T-199 (RAGRIKKLSQKEAEPFEN) = S. sanguinis
• 1T-201 (KRKHENVIVAEEMRVIKN) = S. sanguinis
• 1T-219 (RNINVSATFITEKSLV) = S. sanguinis
• 1T-122 (GAIPDPVTHRVDWEEDHQTRPSR) = S. mitis
• 1T-73 (GWWEELLHETILSKFKITKALELPIQL) = S. pneumoniae

Short answer for 1T-40 (QRVSLWSEVEHEFR) : Target(s) was S. mutans, P. aeruginosa

* * *

tested on: bacteria, fungi, and/or yeasts; format: binding; conditions: microorganism(s) the targeting peptide binds, as listed in Table 2
measure_name: Target(s)

Look over these answered cases.
- 1T-50 (HSDEPIPNILFKSDSVH): P. aeruginosa
- 1T-71 (KIDTNQWPPNKEG): P. aeruginosa
- 1T-76 (EMRLSKFFRDFILWRKK): S. pneumoniae
- 1T-81 (AIATGLDIVDGKFDGYLWA): S. pneumoniae

Consider 1T-79 (FGTPWSITNFWKKNFNDRPDFDSDRRRY) . Its measured Target(s) is S. pneumoniae

Reported Target(s) for 1T-35 (EICLTLVFPIRGSYSEAAKFPVPIHIVEDGTVELPK) was P. aeruginosa

# substance 1T-82 (FGVGVGIALFMAGYAIGKDLRKKFGKSC) ; its Target(s) = S. pneumoniae
